Source listed as patent US11186564B2.

Below is a list of entries, each paired with its recorded IC50 value.
- Subject of test: recombinant human serotonin receptor 5-HT2A (Homo sapiens, UniProt P28223)
- Construct: expressed in transfected cells; method B: loaded with Ca2+ dye
- Sequence (P28223 whole entry): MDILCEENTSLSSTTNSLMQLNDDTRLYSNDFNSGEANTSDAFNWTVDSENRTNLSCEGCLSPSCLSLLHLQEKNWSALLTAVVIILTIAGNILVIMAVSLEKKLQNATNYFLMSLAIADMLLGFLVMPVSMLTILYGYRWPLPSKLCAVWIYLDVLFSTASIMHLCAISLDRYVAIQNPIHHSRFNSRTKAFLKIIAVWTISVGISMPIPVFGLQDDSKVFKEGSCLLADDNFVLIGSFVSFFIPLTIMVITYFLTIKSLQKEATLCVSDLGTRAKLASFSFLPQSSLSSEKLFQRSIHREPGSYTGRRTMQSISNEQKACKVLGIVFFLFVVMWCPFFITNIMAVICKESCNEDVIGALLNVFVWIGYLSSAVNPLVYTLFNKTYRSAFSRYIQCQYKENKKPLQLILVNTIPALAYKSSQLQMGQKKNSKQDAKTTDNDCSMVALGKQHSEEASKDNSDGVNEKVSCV
- Protocol text: 5-HT2A antagonist Ca2+ assay in CHO-K1 cells (method A aequorin luminescence / method B FLIPR fluorescence)
- Format: cell-based
- Experimental setup: antagonist mode vs EC80 of reference agonist, method A or B, read-out: 5HT2A IC50
Give a bare numeral; the unit µM is implied.

Here is how some compounds turned out for IC50.
Compound: O[C@@H](COC1CCCCC1)CN1CCC2(CCN(c3ccccc3)C2)C1 (stereo partly drawn) [Example 346]
Test value: 0.27
--
Compound: CC(C1CCc2ccccc21)N1CCC(Oc2ccc(F)cc2)CC1 (stereo not drawn) [Example 123]
Test value: 0.44
--
Compound: OC(COC1CCCCC1)CN1CCC2(CC1)CCN(c1ccccc1)C2 (stereo not drawn) [Example 354]
Test value: 1.94
--
Compound: c1ccc2c(c1)CCC1(CCN(CC3COc4ccccc43)CC1)O2 (stereo not drawn) [Example 409]
Test value: 0.93
--
Compound: Fc1ccc(O[C@@H]2CCN(CC3COCc4ccccc43)C2)cc1 (stereo partly drawn) [Example 11]
Test value: 0.59

Incoming: Look up IC50 of O[C@@H](CO[C@@H]1CCc2ccccc21)CN1CC[C@@H](Oc2ccc(F)cc2)C1 [Example 47] and report it.
Outgoing: 0.1

Incoming: Look up IC50 of Fc1ccc(O[C@H]2CCCN(CC3COCc4ccccc43)C2)cc1 (stereo partly drawn) [Example 261] and report it.
Outgoing: 0.35
